Recorded values, source PubChem BioAssay (NCI).

test system: UO-31 renal; test: NCI tumour cell line growth inhibition, 48 h
endpointLabel: TGI

>>> print(df.to_string())
                                 itemsmiles  assayvalue
0                 O=C1N(C2CCCCC2)CC12CCCCC2    > 100 µM
1                Cc1c[n+](=O)c2ccccc2n1[O-]    > 100 µM
2  COc1ccc(CCCCl)c(C2=NCCc3cc(OC)c(OC)cc32)c1    > 100 µM
3  O=C1C(Cl)=C(Nc2cccc(Cl)c2)C(=O)N1Cc1ccc(Cl)cc1     24.5 µM
4        Cc1nnn[n-]1.N.N.N.N.N.[Cl-].[Co+3]    > 100 µM
5  N#C[C@@H](c1nc2ccccc2s1)c1ncccc1[N+](=O)[O-]     25.6 µM
